target: protein-protein interaction between Kras and SOS1 (biotin-tagged human Kras loaded with GDP, His-tagged human SOS1) (Homo sapiens (Human), UniProt P01116, G12D); assay: Protein-protein interaction inhibition between Kras and SOS1 (KrasG12D-SOS PPI) using AlphaScreen; type: biochemical; conditions: AlphaScreen; biotin-tagged human Kras loaded with GDP, His-tagged human SOS1; read-out: KRAS G12D-SOS PPI IC50
pIC50: −log10 of the molar value. Bridge positions count the residues as written; N and C are the ends. Square brackets hold non-standard residues; d marks the D form. Peptide text beside a SMILES is read from it. * marks the point of attachment. hPhe(3-Cl-4-CF3) = N[C@@H](CCc1ccc(C(F)(F)F)c(Cl)c1)C(=O)O; NEtPhe(4-Me) = CCN[C@@H](Cc1ccc(C)cc1)C(=O)O; NMeI = CC[C@H](C)[C@H](NC)C(=O)O; NMeD = CN[C@@H](CC(=O)O)C(=O)O; NMeL = CN[C@@H](CC(C)C)C(=O)O; Morpholide = C1CN(*)CCO1; NMeA = CN[C@@H](C)C(=O)O; Ac5c = NC1(C(=O)O)CCCC1; Aze = O=C(O)[C@@H]1CCN1; Sar = CNCC(=O)O
readout.name: pIC50

compound	endpoint.result
CC[C@H](C)[C@@H]1NC(=O)[C@H](CC(C)C)N(C)C(=O)C[C@@H](C(=O)N2CCOCC2)N(C)C(=O)[C@H]([C@@H](C)CC)N(C)C(=O)C2(CCCC2)NC(=O)[C@@H]2CCCN2C(=O)[C@H](CCc2ccc(C(F)(F)F)c(Cl)c2)NC(=O)CN(C)C(=O)[C@H](Cc2ccc(C)cc2)N(CC)C(=O)[C@@H]2CCN2C(=O)[C@H](C)N(C)C1=O [Compound 1322] ([NMeL]I[NMeA][Aze][NEtPhe(4-Me)][Sar][hPhe(3-Cl-4-CF3)]P[Ac5c][NMeI][NMeD]-Morpholide; lactam N-11)	9.09

###

Listing of entries alongside the reported pIC50.
target: protein-protein interaction between Kras and SOS1 (biotin-tagged human Kras loaded with GDP, His-tagged human SOS1) (Homo sapiens (Human), UniProt P01116, G12D); assay: Protein-protein interaction inhibition between Kras and SOS1 (KrasG12D-SOS PPI) using AlphaScreen; format: biochemical; settings: AlphaScreen; biotin-tagged human Kras loaded with GDP, His-tagged human SOS1; read-out: KRAS G12D-SOS PPI IC50
pIC50: −log10 of the molar value. Bridge positions count the residues as written; N and C are the ends. Square brackets hold non-standard residues; d marks the D form. Peptide text beside a SMILES is read from it. * marks the point of attachment. hPhe(3-Cl-4-CF3) = N[C@@H](CCc1ccc(C(F)(F)F)c(Cl)c1)C(=O)O; NMeNle(6-CHF2) = CN[C@@H](CCCCC(F)F)C(=O)O; NMeAla(cPr) = CN[C@@H](CC1CC1)C(=O)O; NMeCha = CN[C@@H](CC1CCCCC1)C(=O)O; NMeT = CN[C@H](C(=O)O)[C@@H](C)O; NMeD = CN[C@@H](CC(=O)O)C(=O)O; NMeL = CN[C@@H](CC(C)C)C(=O)O; NMehSer = CN[C@@H](CCO)C(=O)O; NMeV = CN[C@H](C(=O)O)C(C)C; d(β3hA) = C[C@@H](N)CC(=O)O; Pip = O=C(O)[C@@H]1CCCCN1; NMeA = CN[C@@H](C)C(=O)O; NMeAib = CNC(C)(C)C(=O)O; Nle = CCCC[C@H](N)C(=O)O; Piperidide = C1CCN(*)CC1; Ac5c = NC1(C(=O)O)CCCC1; Aze = O=C(O)[C@@H]1CCN1; Aib = CC(C)(N)C(=O)O; Sar = CNCC(=O)O

molecule	pIC50
CC[C@H](C)[C@@H]1NC(=O)[C@H](CC(C)C)N(C)C(=O)C[C@@H](C(=O)N2CCCCC2)N(C)C(=O)[C@H](CC2CC2)N(C)C(=O)C2(CCCC2)NC(=O)[C@@H]2CCCN2C(=O)[C@H](CCc2ccc(C(F)(F)F)c(Cl)c2)NC(=O)CN(C)C(=O)[C@H](CC2CCCCC2)N(C)C(=O)[C@@H]2CCN2C(=O)[C@H](C)N(C)C1=O [Compound 172] ([NMeL]I[NMeA][Aze][NMeCha][Sar][hPhe(3-Cl-4-CF3)]P[Ac5c][NMeAla(cPr)][NMeD]-Piperidide; lactam N-11)	8.40
CC[C@H](C)[C@@H]1NC(=O)[C@H](CC(C)C)N(C)C(=O)C[C@@H](C(=O)N2CCCCC2)N(C)C(=O)[C@H](C(C)C)N(C)C(=O)C2(CCCC2)NC(=O)[C@@H]2CCCN2C(=O)[C@H](CCc2ccc(C(F)(F)F)c(Cl)c2)NC(=O)CN(C)C(=O)[C@H]([C@@H](C)OC)N(C)C(=O)[C@@H]2CCN2C(=O)[C@H](C)N(C)C1=O [Compound 929] ([NMeL]I[NMeA][Aze][NMeT](Me)[Sar][hPhe(3-Cl-4-CF3)]P[Ac5c][NMeV][NMeD]-Piperidide; lactam N-11)	8.39
CC[C@H](C)[C@@H]1NC(=O)[C@H](CCOC)N(C)C(=O)C[C@@H](C(=O)N2CCCCC2)N(C)C(=O)[C@H](C(C)C)N(C)C(=O)C2(CCCC2)NC(=O)[C@@H]2CCCN2C(=O)[C@H](CCc2ccc(C(F)(F)F)c(Cl)c2)NC(=O)CN(C)C(=O)[C@H](CC2CCCCC2)N(C)C(=O)[C@@H]2CCN2C(=O)[C@H](C)N(C)C1=O [Compound 397] ([NMehSer](Me)I[NMeA][Aze][NMeCha][Sar][hPhe(3-Cl-4-CF3)]P[Ac5c][NMeV][NMeD]-Piperidide; lactam N-11)	8.64
CCCC[C@@H]1NC(=O)[C@H](CCc2ccc(C(F)(F)F)c(Cl)c2)NC(=O)CN(C)C(=O)[C@H](CC2CCCCC2)N(C)C(=O)[C@@H]2CCN2C(=O)CN(C)C(=O)[C@H]([C@@H](C)CC)NC(=O)[C@@H]2CCCCN2C(=O)C[C@@H](C(=O)N2CCCCC2)N(C)C(=O)[C@H](CC(C)C)NC(=O)C(C)(C)N(C)C1=O [Compound 760] ([Pip]I[Sar][Aze][NMeCha][Sar][hPhe(3-Cl-4-CF3)][Nle][NMeAib]L[NMeD]-Piperidide; lactam N-11)	8.28
CC[C@H](C)[C@@H]1NC(=O)[C@H](CC(C)C)N(C)C(=O)C[C@@H](C)NC(=O)[C@H](CC(C)C)N(C)C(=O)C(C)(C)NC(=O)[C@H](CC(C)C)N(C)C(=O)[C@H](CCc2ccc(C(F)(F)F)c(Cl)c2)NC(=O)CN(C)C(=O)[C@H](CCCCC(F)F)N(C)C(=O)CN(C)C(=O)CN(C)C1=O [Compound 1451] (cyclo([Aib][NMeL][d(β3hA)][NMeL]I[Sar][Sar][NMeNle(6-CHF2)][Sar][hPhe(3-Cl-4-CF3)][NMeL]))	7.70

###

target: protein-protein interaction between Kras and SOS1 (biotin-tagged human Kras loaded with GDP, His-tagged human SOS1) (Homo sapiens (Human), UniProt P01116, G12D); experiment: Protein-protein interaction inhibition between Kras and SOS1 (KrasG12D-SOS PPI) using AlphaScreen; format: biochemical; conditions: AlphaScreen; biotin-tagged human Kras loaded with GDP, His-tagged human SOS1; read-out: KRAS G12D-SOS PPI IC50;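 further: kras produced in E. coli, Ni-coupled donor beads and streptavidin acceptor beads, excitation 680 nm with emission detected at 520–620 nm via singlet oxygen transfer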
pIC50: −log10 of the molar value. Bridge positions count the residues as written; N and C are the ends. Square brackets hold non-standard residues; d marks the D form. Peptide text beside a SMILES is read from it. * marks the point of attachment. hPhe(3-Cl-4-CF3) = N[C@@H](CCc1ccc(C(F)(F)F)c(Cl)c1)C(=O)O; 3Oxa8azabicyclo(3.2.1)octane = C1CC2COCC1N2*; NMePhe(4-Me) = CN[C@@H](Cc1ccc(C)cc1)C(=O)O; NMeGly(cPent) = CN[C@H](C(=O)O)C1CCCC1; NMehLeu = CN[C@@H](CCC(C)C)C(=O)O; NMeI = CC[C@H](C)[C@H](NC)C(=O)O; NMeD = CN[C@@H](CC(=O)O)C(=O)O; NMeL = CN[C@@H](CC(C)C)C(=O)O; NMeA = CN[C@@H](C)C(=O)O; Ac5c = NC1(C(=O)O)CCCC1; Aze = O=C(O)[C@@H]1CCN1; Sar = CNCC(=O)O
readout.name: pIC50

molecule	readout.name	endpoint.result
CC[C@H](C)[C@@H]1NC(=O)[C@H](CC(C)C)N(C)C(=O)C[C@@H](C(=O)N2C3CCC2COC3)N(C)C(=O)[C@H](C2CCCC2)N(C)C(=O)C2(CCCC2)NC(=O)[C@@H]2CCCN2C(=O)[C@H](CCc2ccc(C(F)(F)F)c(Cl)c2)NC(=O)CN(C)C(=O)[C@H](C2CCCC2)N(C)C(=O)[C@@H]2CCN2C(=O)[C@H](C)N(C)C1=O [Compound 721] ([NMeL]I[NMeA][Aze][NMeGly(cPent)][Sar][hPhe(3-Cl-4-CF3)]P[Ac5c][NMeGly(cPent)][NMeD]-{3Oxa8azabicyclo(3.2.1)octane}; lactam N-11)	pIC50	8.82
CC[C@H](C)[C@@H]1NC(=O)[C@H](CCC(C)C)N(C)C(=O)C[C@@H](C(=O)N(C)C)N(C)C(=O)[C@H]([C@@H](C)CC)N(C)C(=O)C2(CCCC2)NC(=O)[C@@H]2CCCN2C(=O)[C@H](CCc2ccc(C(F)(F)F)c(Cl)c2)NC(=O)CN(C)C(=O)[C@H](Cc2ccc(C)cc2)N(C)C(=O)[C@@H]2CCN2C(=O)[C@H](C)NC1=O [Compound 308] ([NMehLeu]IA[Aze][NMePhe(4-Me)][Sar][hPhe(3-Cl-4-CF3)]P[Ac5c][NMeI][NMeD]-NMe2; lactam N-11)	pIC50	9.03
